# target of assay: p53 Y220C mutant protein (amino acid residues 94-293) (Homo sapiens, UniProt P04637, Y220C)
# Construct: p53 Y220C mutant protein (amino acid residues 94-293)
# method description: Thermal Shift Assay (TSA), dTM
# Type: binding
# details: thermal shift, 100 uM compound; read-out: TSA P53 Y220C dTM (100 uM)
Consider the following molecules and their measured ΔTm at 100 µM readings.

Use these answered entries as a reference point.
Qu. Tell me measured ΔTm at 100 µM for CNC(=O)c1ccc(NCC#Cc2nc3c(N[C@@H]4CCn5cncc5C4)cccn3c2SC(F)(F)F)c(OC)c1 please.
Ans. ≥ 10 °C

Qu. Provide measured ΔTm at 100 µM value, entry: C=CC(=O)N(C)c1c(C#CCNc2ccc(C(=O)NC)cc2OC)nc2c(N[C@@H]3CCN(C)C[C@@H]3F)cccn12
Ans. 5 to 10 °C

Qu. State, in one line, measured ΔTm at 100 µM of COc1cc(S(C)(=O)=O)ccc1NCC#Cc1nc2c(NC3CCS(=O)(=O)CC3)cccn2c1CC(F)(F)F
Ans. 5 to 10 °C

Qu. Give the value of ΔTm at 100 µM reported for the following: CNC(=O)c1ccc(NCC#Cc2nc3c(N[C@@H]4CCN(C)CC4(F)F)cccn3c2CC(F)(F)F)c(OC)c1 (single isomer, unassigned)
Ans. 5 to 10 °C

Qu. Query ΔTm at 100 µM for CNC(=O)c1ccc(NCC#Cc2nc3c(NC4CCN(C)CC4)cccn3c2SC(F)(F)F)c(OC)c1
Ans. ≥ 10 °C

Qu. Given the molecule COc1cc(S(C)(=O)=O)ccc1NCC#Cc1nc2c(NC3CC4(COC4)C3)cccn2c1CC(F)(F)F , write its reported ΔTm at 100 µM.
Ans. 5 to 10 °C

Let us move to another entry and its ΔTm at 100 µM.
Qu. State, in one line, measured ΔTm at 100 µM of CNC(=O)c1ccc(NCC#Cc2nc3c(N[C@@H]4CCNC(=O)C4)cccn3c2SC(F)(F)F)c(OC)c1
Ans. 5 to 10 °C

---

The reader will find reported ΔTm at 10 µM values listed item by item below.
# target of assay: p53 Y220C mutant protein (amino acid residues 94-293) (Homo sapiens, UniProt P04637, Y220C)
# Construct: p53 Y220C mutant protein (amino acid residues 94-293)
# method description: Thermal Shift Assay (TSA), dTM
# Assay type: binding
# details: 10 uM compound; p53 Y220C; read-out: TSA P53 Y220C dTM

Worked cases, ΔTm at 10 µM given:
Qu. Return ΔTm at 10 µM for the following compound: CCNC(=O)c1ccc(OC)c(NCC#Cc2cc3c(N[C@@H]4CCN(C)C[C@@H]4F)nccn3c2SC(F)(F)F)c1
Ans. ≥ 10 °C

Qu. Please supply the value of reported ΔTm at 10 µM for the item CNC(=O)c1ccc(OC)c(NCC#Cc2nn3c(N[C@@H]4CCNC[C@@H]4F)cccc3c2SC(F)(F)F)n1
Ans. ≥ 10 °C

Qu. Give a short answer stating reported ΔTm at 10 µM for CNC(=O)c1ccc(NCC#Cc2nc3c(NC4CCOCC4)cccn3c2SC(F)(F)F)c(OC)c1 .
Ans. 5 to 10 °C

Further cases:
Qu. Supply reported ΔTm at 10 µM belonging to this compound: CNC(=O)c1ccc(OC)c(NCC#Cc2nn3c(N[C@@H]4CN(C)C[C@@H]4F)cccc3c2SC(F)(F)F)c1
Ans. ≥ 10 °C
